From: ChEMBL document CHEMBL1142699

Target: Nociceptin receptor (Mus musculus) (UniProt P35377)
Sequence (P35377 whole entry): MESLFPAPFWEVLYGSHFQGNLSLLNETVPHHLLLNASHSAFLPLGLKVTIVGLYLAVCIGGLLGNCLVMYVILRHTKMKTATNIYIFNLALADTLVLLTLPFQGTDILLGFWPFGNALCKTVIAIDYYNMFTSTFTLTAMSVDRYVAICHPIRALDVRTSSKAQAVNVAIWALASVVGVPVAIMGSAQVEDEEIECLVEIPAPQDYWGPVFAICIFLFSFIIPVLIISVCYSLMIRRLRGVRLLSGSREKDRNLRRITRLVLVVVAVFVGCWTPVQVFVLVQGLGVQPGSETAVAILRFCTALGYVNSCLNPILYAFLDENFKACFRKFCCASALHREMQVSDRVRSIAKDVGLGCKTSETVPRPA
Assay: Inhibition of electrically evoked contraction of mouse vas deferens; Effect evident only in some tissues
Assay type: functional
Settings: filed as agonist
Numbered stars: 1 amine (or outer) side, 2 acyl side, 3 side chain; on linkers, the order of the positions; unused ones are H or OH. Square brackets hold non-standard residues; d marks the D form. Peptide text beside a SMILES is read from it. * marks the point of attachment. X1 = N[C@@H](Cc1ccccc1)CN(CC(=O)[*:2])[*:1]; Phe(4-F) = N[C@@H](Cc1ccc(F)cc1)C(=O)O; N(NH2)2 = NN(N)*; NHNH2 = NN*
Assay Metric: Activity

Molecule	Val
CC(C)C[C@H](NC(=O)[C@H](CCCCN)NC(=O)[C@H](CCCN=C(N)N)NC(=O)[C@H](C)NC(=O)[C@H](CO)NC(=O)[C@H](CCCCN)NC(=O)[C@H](CCCN=C(N)N)NC(=O)[C@H](C)NC(=O)CNC(=O)[C@@H](NC(=O)[C@H](Cc1ccccc1)NC(=O)CNC(=O)CNC[C@@H](N)Cc1ccccc1)[C@@H](C)O)C(=O)N[C@@H](C)C(=O)N[C@@H](CC(N)=O)C(=O)N[C@@H](CCC(N)=O)C(N)=O (H-[X1]GFTGARKSARKLANQ-NH2)	Agonist
C[C@H](NC(=O)CNC(=O)[C@@H](NC(=O)[C@H](Cc1ccc(F)cc1)NC(=O)CNC(=O)CNC(=O)CNCc1ccccc1)[C@@H](C)O)C(=O)N[C@@H](CCCN=C(N)N)C(=O)N[C@@H](CCCCN)C(=O)N[C@@H](CO)C(=O)N[C@@H](C)C(=O)N[C@@H](CCCN=C(N)N)C(=O)N[C@@H](CCCCN)C(=O)N[C@@H](CCCN=C(N)N)C(=O)N[C@@H](CCCCN)C(=O)N[C@@H](CC(N)=O)C(=O)N[C@@H](CCC(=O)N(N)N)C(=O)NN	Agonist
C[C@H](NC(=O)CNC(=O)[C@@H](NC(=O)[C@H](Cc1ccccc1)NC(=O)CNC(=O)CNC[C@@H](N)Cc1ccccc1)[C@@H](C)O)C(=O)N[C@@H](CCCN=C(N)N)C(=O)N[C@@H](CCCCN)C(=O)N[C@@H](CO)C(=O)N[C@@H](C)C(=O)N[C@@H](CCCN=C(N)N)C(=O)N[C@@H](CCCCN)C(=O)N[C@@H](CCCN=C(N)N)C(=O)N[C@@H](CCCCN)C(=O)N[C@@H](CC(N)=O)C(=O)N[C@@H](CCC(=O)N(N)N)C(=O)NN (H-[X1]GFTGARKSARKRKNE(N(NH2)2)-NHNH2)	Agonist
CC(C)C[C@H](NC(=O)[C@H](CCCCN)NC(=O)[C@H](CCCN=C(N)N)NC(=O)[C@H](C)NC(=O)[C@H](CO)NC(=O)[C@H](CCCCN)NC(=O)[C@H](CCCN=C(N)N)NC(=O)[C@H](C)NC(=O)CNC(=O)[C@@H](NC(=O)[C@H](Cc1ccc(F)cc1)NC(=O)CNC(=O)CNC[C@@H](N)Cc1ccccc1)[C@@H](C)O)C(=O)N[C@@H](C)C(=O)N[C@@H](CC(N)=O)C(=O)N[C@@H](CCC(N)=O)C(N)=O (H-[X1]G[Phe(4-F)]TGARKSARKLANQ-NH2)	Agonist
